Tested on: MT-4 (Homo sapiens)
Experiment: Concentration required to reduce the viability of mock-infected MT-4 cells by 50% was determined by MTT method
Conditions: MT4
recordedEndpoint: CC50 (µM)
The reply should be a number in µM, with the unit left off.

// worked examples, CC50 included
structureSmilesString: O=C(c1ccc(Cl)c([N+](=O)[O-])c1)N(C(=S)OCCOc1ccccc1)c1ccccc1
studySystem: MT-4 (Homo sapiens)
CC50, µM: 80

structureSmilesString: O=C(c1ccccc1)N(C(=S)OCc1ccco1)c1ccccc1
studySystem: MT-4 (Homo sapiens)
CC50, µM: 38.3

structureSmilesString: O=C(c1ccc(Cl)cc1)N(C(=S)OCCc1ccccc1)c1ccccc1
studySystem: MT-4 (Homo sapiens)
CC50, µM: 43

// sample O=C(c1ccco1)N(C(=S)OCCc1ccccc1)c1ccccc1 , its CC50 was 102

====

System: MT-4 (Homo sapiens)
Test: Concentration required to reduce the viability of mock-infected MT-4 cells by 50% was determined by MTT method
Conditions: MT4
Each entry below lists one item and its recorded CC50 value.

molecule: CC(COc1ccccc1)OC(=S)N(C(=O)COc1ccccc1)c1ccccc1 (stereo not given)
recordedEndpoint: CC50
assayResult: 122 µM
//
molecule: CC(COc1ccccc1)OC(=S)N(C(=O)c1ccco1)c1ccccc1 (stereo not given)
recordedEndpoint: CC50
assayResult: 51.5 µM
//
molecule: O=C1c2ccccc2C(=O)N1CCOC(=S)N(C(=O)c1cccs1)c1ccc(I)cc1
recordedEndpoint: CC50
assayResult: 18 µM
//
molecule: O=C1c2ccccc2C(=O)N1CCOC(=S)N(C(=O)c1cccs1)c1cccc(F)c1
recordedEndpoint: CC50
assayResult: > 100 µM

Lab note: molecule O=C1c2ccccc2C(=O)N1CCOC(=S)N(C(=O)c1cccs1)c1ccccc1Cl tested on MT-4 (Homo sapiens); recorded CC50 was > 100 µM

====

Entries annotated with measured CC50
Test system: MT-4 (Homo sapiens)
Experiment: Concentration required to reduce the viability of mock-infected MT-4 cells by 50% was determined by MTT method
Details: MT4
State just the number; it will be interpreted in µM.

Check out these entries, answers already filled in.
structureSmilesString: O=C(c1ccccc1)N(C(=S)OCCSc1ccccc1)c1ccccc1
CC50 / µM: 44

structureSmilesString: O=C1c2ccccc2C(=O)N1CCOC(=S)N(C(=O)c1cccs1)c1ccc([N+](=O)[O-])cc1
CC50 / µM: 168

structureSmilesString: O=C(c1cccs1)N(C(=S)OCCOc1ccccc1)c1ccccc1
CC50 / µM: 125

structureSmilesString: O=C(c1ccccc1)N(C(=S)OCCOc1ccccc1)c1ccc(F)cc1
CC50 / µM: 70.7

structureSmilesString: O=C(/C=C/c1ccccc1)N(C(=S)OCCOc1ccccc1)c1ccccc1
CC50 / µM: 66.6

Short answer for O=C(c1ccc(Cl)cc1Cl)N(C(=S)OCCOc1ccccc1)c1ccccc1 : CC50 was 43

====

System: MT-4 (Homo sapiens)
Assay: Concentration required to reduce the viability of mock-infected MT-4 cells by 50% was determined by MTT method
Conditions: MT4
Below, each of the compounds is paired with its reported CC50 value.
Record the value in µM, omitting the unit from your answer.

Take a look at these entries with their results.
compound: O=C1c2ccccc2C(=O)N1CCOC(=S)N(C(=O)c1ccco1)c1ccc([N+](=O)[O-])cc1
CC50 [µM]: 18

compound: O=C(/C=C/c1ccccc1)N(C(=S)OCCc1ccccc1)c1ccccc1
CC50 [µM]: 40.4

compound: CC(COc1ccccc1)OC(=S)N(C(=O)c1cccs1)c1ccc([N+](=O)[O-])cc1 (stereo not given)
CC50 [µM]: 63

Query O=C1c2ccccc2C(=O)N1CCOC(=S)N(C(=O)c1cccs1)c1cccc([N+](=O)[O-])c1 on MT-4 (Homo sapiens); CC50 returned: 100

Field CC50 (system: MT-4 (Homo sapiens)) for entry O=C(c1cc(Cl)cc(Cl)c1)N(C(=S)OCCOc1ccccc1)c1ccccc1 = 43

Record O=C1c2ccccc2C(=O)N1CCOC(=S)N(C(=O)c1cccs1)c1cccc(Br)c1 ; system MT-4 (Homo sapiens); CC50 = 53

Item: O=C(c1ccc(Cl)cc1)N(C(=S)OCCOc1ccccc1)c1ccccc1 | System: MT-4 (Homo sapiens) | CC50: 133

// CC50 (MT-4 (Homo sapiens)) for O=C(c1ccco1)N(C(=S)OCCOc1ccccc1)c1ccccc1 = 82
